target: Recombinant human his-tagged IGF 1R extracellular domain protein (human) (UniProt P08069); test: SPR, captured IgG, IGF-1R ECD-his analyte, dissociation pH 6
Task for the reader: assign each of the following binders its reported log10 of kon.
Please be aware that the numbers have been log10-transformed from kon in M⁻¹ s⁻¹.

[Q] Could you tell me which log10 of kon is on file for VRDN-02553 (antibody, V domains shown) VH: EVQLVQSGGGLVKPGGSLRLSCAASGFTFSSFHMHWVRQAPGKGLEWISVIDTRGATYYADSVKGRFTISRDNAKNSLYLQMNSLRAEDTAVYYCARLGNFYYGMDVWGQGTTVTVSS VL: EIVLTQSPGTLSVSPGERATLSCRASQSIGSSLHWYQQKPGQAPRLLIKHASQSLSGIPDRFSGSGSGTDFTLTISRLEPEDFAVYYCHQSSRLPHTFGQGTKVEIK ?
[A] 5.53

[Q] Could you tell me which log10 of kon is on file for VRDN-02503 (antibody, V domains shown) VH: EVQLVQSGGGLVKPGGSLRLSCAASGFHFSSFAMHWVRQAPGKGLEWISVIDTRGATYYADSVKGRFTISRDNAKNSLYLQMNSLRAEDTAVYYCARLGNFYYGMDVWGQGTTVTVSS VL: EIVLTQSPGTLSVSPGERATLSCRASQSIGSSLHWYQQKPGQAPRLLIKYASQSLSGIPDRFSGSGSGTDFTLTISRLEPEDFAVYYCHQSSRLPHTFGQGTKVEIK ?
[A] 4.58

[Q] Could you tell me which log10 of kon is on file for VRDN-02555 (antibody, V domains shown) VH: EVQLVQSGGGLVKPGGSLRLSCAASGFTFSSFAMHWVRQAPGKGLEWISVIDTRGATYYADSVKGRFTISRDNAKNSLYLQMNSLRAEDTAVYYCHRLGNFYYGMDVWGQGTTVTVSS VL: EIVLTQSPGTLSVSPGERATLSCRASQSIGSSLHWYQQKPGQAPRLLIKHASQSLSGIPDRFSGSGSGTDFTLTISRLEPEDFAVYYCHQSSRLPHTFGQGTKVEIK ?
[A] 5.69

[Q] Could you tell me which log10 of kon is on file for VRDN-02507 (antibody, V domains shown) VH: EVQLVQSGGGLVKPGGSLRLSCAASGFTFSSHAMHWVRQAPGKGLEWISVIDTRGATYYADSVKGRFTISRDNAKNSLYLQMNSLRAEDTAVYYCARLGNFYYGMDVWGQGTTVTVSS VL: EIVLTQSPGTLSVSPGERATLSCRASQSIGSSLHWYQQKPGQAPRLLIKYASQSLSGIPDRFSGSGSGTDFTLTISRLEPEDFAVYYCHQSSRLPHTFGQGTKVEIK ?
[A] 4.33

[Q] Could you tell me which log10 of kon is on file for VRDN-02542 (antibody, V domains shown) VH: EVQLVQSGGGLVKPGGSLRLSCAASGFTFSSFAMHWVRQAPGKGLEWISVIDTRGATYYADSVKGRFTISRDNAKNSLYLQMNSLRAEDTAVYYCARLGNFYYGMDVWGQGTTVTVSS VL: EIVLTQSPGTLSVSPGERATLSCRASQSIGSSLHWYQQKPGQAPRLLIKYASHSLSGIPDRFSGSGSGTDFTLTISRLEPEDFAVYYCHQSSRLPHTFGQGTKVEIK ?
[A] 4.41

[Q] Could you tell me which log10 of kon is on file for VRDN-02511 (antibody, V domains shown) VH: EVQLVQSGGGLVKPGGSLRLSCAASGFTFSSFAMHWVRQAPGKGLEWISVIDHRGATYYADSVKGRFTISRDNAKNSLYLQMNSLRAEDTAVYYCARLGNFYYGMDVWGQGTTVTVSS VL: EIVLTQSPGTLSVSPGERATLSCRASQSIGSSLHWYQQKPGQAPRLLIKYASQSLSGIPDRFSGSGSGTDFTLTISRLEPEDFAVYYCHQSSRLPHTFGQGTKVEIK ?
[A] 5.20

[Q] Could you tell me which log10 of kon is on file for VRDN-02509 (antibody, V domains shown) VH: EVQLVQSGGGLVKPGGSLRLSCAASGFTFSSFAHHWVRQAPGKGLEWISVIDTRGATYYADSVKGRFTISRDNAKNSLYLQMNSLRAEDTAVYYCARLGNFYYGMDVWGQGTTVTVSS VL: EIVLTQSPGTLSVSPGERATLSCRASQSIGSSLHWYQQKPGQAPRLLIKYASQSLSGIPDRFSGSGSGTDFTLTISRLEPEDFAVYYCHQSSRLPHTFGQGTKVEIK ?
[A] 4.55

[Q] Could you tell me which log10 of kon is on file for VRDN-02515 (antibody, V domains shown) VH: EVQLVQSGGGLVKPGGSLRLSCAASGFTFSSFAMHWVRQAPGKGLEWISVIDTRGAHYYADSVKGRFTISRDNAKNSLYLQMNSLRAEDTAVYYCARLGNFYYGMDVWGQGTTVTVSS VL: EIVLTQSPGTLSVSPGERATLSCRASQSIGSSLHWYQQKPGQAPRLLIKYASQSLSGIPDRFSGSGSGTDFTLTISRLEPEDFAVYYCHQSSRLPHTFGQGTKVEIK ?
[A] 5.00

[Q] Could you tell me which log10 of kon is on file for VRDN-02537 (antibody, V domains shown) VH: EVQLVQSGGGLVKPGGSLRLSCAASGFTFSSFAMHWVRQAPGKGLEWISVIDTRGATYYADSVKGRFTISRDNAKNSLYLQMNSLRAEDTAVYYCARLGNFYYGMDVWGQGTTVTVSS VL: EIVLTQSPGTLSVSPGERATLSCRASQSIGSSHHWYQQKPGQAPRLLIKYASQSLSGIPDRFSGSGSGTDFTLTISRLEPEDFAVYYCHQSSRLPHTFGQGTKVEIK ?
[A] 4.44

[Q] Could you tell me which log10 of kon is on file for VRDN-02520 (antibody, V domains shown) VH: EVQLVQSGGGLVKPGGSLRLSCAASGFTFSSFAMHWVRQAPGKGLEWISVIDTRGATYYADSVKGRFTISRDNAKNSLYLQMNSLRAEDTAVYYCARLGHFYYGMDVWGQGTTVTVSS VL: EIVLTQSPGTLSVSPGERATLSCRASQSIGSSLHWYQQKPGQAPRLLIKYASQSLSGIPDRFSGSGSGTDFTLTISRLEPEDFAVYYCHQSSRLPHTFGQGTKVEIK ?
[A] 4.62
